Where do the numbers come from? From ChEMBL document CHEMBL3988442.

The following compounds are listed with their measured Percent Effect values.
# Tested System: Proteasome subunit beta (Trypanosoma cruzi) (UniProt O96673)
# Sequence (whole entry): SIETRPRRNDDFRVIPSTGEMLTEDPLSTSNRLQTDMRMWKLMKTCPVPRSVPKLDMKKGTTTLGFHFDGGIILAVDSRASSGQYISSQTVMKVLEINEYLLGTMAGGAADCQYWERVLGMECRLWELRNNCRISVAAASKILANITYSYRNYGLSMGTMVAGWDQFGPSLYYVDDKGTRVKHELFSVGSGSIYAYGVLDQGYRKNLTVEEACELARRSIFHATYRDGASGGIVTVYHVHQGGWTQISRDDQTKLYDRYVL
# Test Protocol: Trypanosoma cruzi proteasome chymotrypsin-like activity (TcProtChymo) assay.
# Type: functional
# Parameters: scale not given: in the data most compounds retested in dose-response had high values
# Condition Context: 9.37 µM

[
  {
    "Compound": "NCc1cnn(-c2ccccc2C(=O)NCc2ccncc2)c1",
    "Percent Effect [%]": 6.08
  },
  {
    "Compound": "CCN1CCOC(CNCc2ccccn2)C1 (configuration not stated)",
    "Percent Effect [%]": -3.64
  },
  {
    "Compound": "CC(C)c1csc(C2CCCN(C(=O)c3ncccn3)C2)n1 (configuration not stated)",
    "Percent Effect [%]": 3.69
  },
  {
    "Compound": "O=C(c1ccccn1)N1CCCC(c2nccn2CC2CCC2)C1 (configuration not stated)",
    "Percent Effect [%]": 3.37
  },
  {
    "Compound": "Cc1cccnc1NC(=O)NC(C)Cn1cccn1 (configuration not stated)",
    "Percent Effect [%]": 0.845
  },
  {
    "Compound": "CC(Cn1cccn1)NC(=O)Nc1nccs1 (configuration not stated)",
    "Percent Effect [%]": 5.57
  },
  {
    "Compound": "CCc1ccc(NC(=O)c2cnc(N3CCN(C)CC3)nc2C)cc1",
    "Percent Effect [%]": 8.01
  }
]

====

The following molecules are listed with their measured Percent Effect values.
# Tested System: Proteasome subunit beta (Trypanosoma cruzi) (UniProt O96673)
# Test Protocol: Trypanosoma cruzi proteasome chymotrypsin-like activity (TcProtChymo) assay.
# Assay type: functional
# Set-up: scale not given: in the data most compounds retested in dose-response had high values
# Condition Context: 9.37 µM

[
  {
    "Molecule": "CC(C)COC(C)C(=O)NCc1ccc(OC(C)C)nc1 (configuration not stated)",
    "Scale Unit": "%",
    "Percent Effect": 11.1
  },
  {
    "Molecule": "CCN(CC)CCNC(=O)c1nn(CC)cc1Cl",
    "Scale Unit": "%",
    "Percent Effect": 9.43
  },
  {
    "Molecule": "Cc1nn(C)c(N2CCOCC2)c1CNCc1ccnc(N(C)C)c1",
    "Scale Unit": "%",
    "Percent Effect": 10.6
  },
  {
    "Molecule": "O=C(CCc1nc2cccnc2[nH]1)NCc1cccnc1",
    "Scale Unit": "%",
    "Percent Effect": 15.5
  },
  {
    "Molecule": "CC(C)S(=O)(=O)NCC1CCCN(C(=O)c2ccc3c(c2)OCCO3)C1 (configuration not stated)",
    "Scale Unit": "%",
    "Percent Effect": 7.81
  },
  {
    "Molecule": "O=c1oc(-c2cccs2)nn1CC(O)c1ccccc1 (configuration not stated)",
    "Scale Unit": "%",
    "Percent Effect": 5.58
  },
  {
    "Molecule": "Cc1noc(CN2CCC(c3ccnn3CCO)CC2)n1",
    "Scale Unit": "%",
    "Percent Effect": 8.76
  }
]
